- Test system: MOLP-8 human multiple myeloma cell line
- Assay Text: MOLP8 Caspase-Glo 3/7 apoptosis induction assay
- Assay type: cell-based
- Test Context: MOLP-8 cells, 2 hours incubation at 37° C.; averaged values over all runs on all batches
Reported Property: AC50 (nM)
Note: unit nM is implicit; provide only the numeric part.

Study these solved cases before continuing.
Molecule | Unit Of Measure | AC50
Cc1c(C(=O)O)n2c3ccc(Cl)c(c13)-c1c(nn(C)c1C)C(C)OCc1cc(n(C)n1)CCc1cc(c3ccc(F)cc3c1)OCCC2 (single isomer, unassigned) [Compound 17] | nM | 129
Cc1c(C(=O)O)n2c3ccc(Cl)c(c13)-c1c(nn(C)c1C)C(CC(C)O)OCc1cc(n(C)n1)CCc1cc(c3ccc(F)cc3c1)OCCC2 (single isomer, unassigned) [Compound 20] | nM | 683
COCCC1OCc2cc(n(C)n2)CCc2cc(c3ccc(F)cc3c2)OCCCn2c(C(=O)O)c(C)c3c(c(Cl)ccc32)-c2c1nn(C)c2C (single isomer, unassigned) [Compound 4] | nM | 28.4
COCC1OCc2cc(n(C)n2)CCc2cc(c3ccc(F)cc3c2)OCCCn2c(C(=O)O)c(C)c3c(c(Cl)ccc32)-c2c1nn(C)c2C (single isomer, unassigned) [Compound 16] | nM | 230
COCCn1nc2cc1CCc1cc(c3ccc(F)cc3c1)OCCCn1c(C(=O)O)c(C)c3c(c(Cl)ccc31)-c1c(C)nn3c1C(CC2)OCC3 (stereo not shown) [Compound 34] | nM | 889

Moving on to the next molecule.
Cc1nn2c3c1-c1c(Cl)ccc4c1c(C)c(C(=O)O)n4CCCOc1cc(cc4cc(F)ccc14)CCc1cc(nn1C)CCC3OCC2 (stereo not shown) [Compound 27] tested on MOLP-8 human multiple myeloma cell line gave AC50: 8.5

---

pKi values by entry
- Tested On: Myeloid Cell Leukemia 1 (Mcl-1) (Homo sapiens (Human), UniProt Q07820)
- Sequence (Q07820 whole entry): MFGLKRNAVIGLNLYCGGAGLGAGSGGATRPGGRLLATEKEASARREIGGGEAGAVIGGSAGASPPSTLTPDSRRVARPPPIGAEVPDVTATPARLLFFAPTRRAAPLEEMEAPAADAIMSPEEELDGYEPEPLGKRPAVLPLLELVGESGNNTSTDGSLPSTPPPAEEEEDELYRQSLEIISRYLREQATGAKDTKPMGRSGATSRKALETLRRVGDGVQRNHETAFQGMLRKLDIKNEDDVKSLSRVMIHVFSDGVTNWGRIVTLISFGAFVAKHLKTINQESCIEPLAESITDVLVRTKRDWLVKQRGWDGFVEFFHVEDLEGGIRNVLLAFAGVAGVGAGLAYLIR
Note: pKi values are expressed as the negative base-10 logarithm of concentration in M.

Study these solved cases before continuing.
Compound | pKi
Cc1c(C(=O)O)n2c3ccc(Cl)c(c13)-c1c(nn(C)c1C)C(CCCO)OCc1cc(n(C)n1)CCc1cc(c3ccc(F)cc3c1)OCCC2 (single isomer, unassigned) [Compound 11] | 11.00
Cc1c(C(=O)O)n2c3ccc(Cl)c(c13)-c1c(nn(C)c1C)C(CN1CCOCC1)OCc1cc(n(C)n1)CCc1cc(c3ccc(F)cc3c1)OCCC2 (single isomer, unassigned) [Compound 13] | 10.24

Moving on to the next compound.
C=CC1OCc2cc(n(C)n2)CCc2cc(c3ccc(F)cc3c2)OCCCn2c(C(=O)O)c(C)c3c(c(Cl)ccc32)-c2c1nn(C)c2C (single isomer, unassigned) [Compound 2] tested on Myeloid Cell Leukemia 1 (Mcl-1) (Homo sapiens (Human), UniProt Q07820) gave pKi: 10.62
